Sourced from paper PMC10786891

Entries and their pKd
Molecular target: T1, EsCas13d, nuclease-dead (Eubacterium siraeum, UniProt B0MS50, R295A;H300A;R849A;H854A)
T1 sequence: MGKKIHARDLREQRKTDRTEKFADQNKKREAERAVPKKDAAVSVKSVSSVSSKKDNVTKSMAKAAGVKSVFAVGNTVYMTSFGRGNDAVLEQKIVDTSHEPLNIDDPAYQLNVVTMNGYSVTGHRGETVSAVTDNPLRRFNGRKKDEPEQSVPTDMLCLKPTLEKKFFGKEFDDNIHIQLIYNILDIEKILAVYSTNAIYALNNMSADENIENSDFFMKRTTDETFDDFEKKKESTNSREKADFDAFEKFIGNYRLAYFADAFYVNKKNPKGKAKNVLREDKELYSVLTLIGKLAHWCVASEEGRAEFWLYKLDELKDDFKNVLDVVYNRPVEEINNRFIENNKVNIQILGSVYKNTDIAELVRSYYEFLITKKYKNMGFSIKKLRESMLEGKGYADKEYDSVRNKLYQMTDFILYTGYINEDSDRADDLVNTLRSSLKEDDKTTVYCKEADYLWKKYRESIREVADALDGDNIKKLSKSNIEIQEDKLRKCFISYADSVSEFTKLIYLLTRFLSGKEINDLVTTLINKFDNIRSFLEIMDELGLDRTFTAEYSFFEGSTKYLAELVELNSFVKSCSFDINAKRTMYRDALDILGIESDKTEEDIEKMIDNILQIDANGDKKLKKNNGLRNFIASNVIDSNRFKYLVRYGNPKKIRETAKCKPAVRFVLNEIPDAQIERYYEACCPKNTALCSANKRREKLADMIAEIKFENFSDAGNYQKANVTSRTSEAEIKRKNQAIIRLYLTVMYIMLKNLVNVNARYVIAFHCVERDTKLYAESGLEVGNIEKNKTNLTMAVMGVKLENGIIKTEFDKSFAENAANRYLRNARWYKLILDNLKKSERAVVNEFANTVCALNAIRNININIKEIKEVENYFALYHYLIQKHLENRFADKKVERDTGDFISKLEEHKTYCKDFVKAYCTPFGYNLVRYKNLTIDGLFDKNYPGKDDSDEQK
Experiment: crRNA (strand 1, pre-loaded); Mg2+; 40 mM Tris-HCl pH 7.5, 150 mM NaCl, 6 mM MgCl2, 1 mM DTT, 0.1% Tween-20, 0.2 mg/ml BSA; 25 C; 10 min per concentration, then washed
Settings: tags: His6-TwinStrep-SUMO cleaved; N-terminal SNAP kept (SNAP-Surface 488); label: 3' end held by stalled T7 RNA polymerase
pKd here: minus log base 10 of the concentration, concentration in moles per litre.

Some binders with recorded pKd:
Recorded pKd for target 3 insU 3' of 4,insC 3' of 3 (mixed) RNA 1: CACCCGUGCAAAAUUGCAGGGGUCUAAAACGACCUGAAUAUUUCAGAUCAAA RNA 2: GGGAAUGGAUCCACAUCUACGAAUUCGUUUUUGAUCUGAAAUAUUCAGUGCUCUGCAGAUCGGAAGAGCACACGU , please?
7.76

And then target 3 G19U (mixed) RNA 1: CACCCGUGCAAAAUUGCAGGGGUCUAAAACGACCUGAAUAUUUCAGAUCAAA RNA 2: GGGAAUGGAUCCACAUCUACGAAUUCGUUUUUUAUCUGAAAUAUUCAGGUCUGCAGAUCGGAAGAGCACACGU , what is it?
7.08

And then target 1 MT 5'PFS CAA 3'PFS UAA (mixed) RNA 1: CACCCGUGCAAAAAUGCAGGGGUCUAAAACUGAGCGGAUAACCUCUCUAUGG RNA 2: GGGAAUGGAUCCACAUCUACGAAUUCCAACCAUAGAGAGGUUAUCCGCUCAUAAAGAUCGGAAGAGCACACGU , what is it?
7.74

Others:
Recorded pKd for target 2 MT 5'PFS UGU 3'PFS AUA (mixed) RNA 1: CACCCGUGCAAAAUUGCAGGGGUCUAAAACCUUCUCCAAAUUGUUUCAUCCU RNA 2: GGGAAUGGAUCCACAUCUACGAAUUCUGUAGGAUGAAACAAUUUGGAGAAGAUAAGAUCGGAAGAGCACACGU , please?
8.00

And then target 1 G17A,U19A (mixed) RNA 1: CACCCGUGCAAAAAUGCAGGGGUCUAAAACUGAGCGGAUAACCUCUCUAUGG RNA 2: GGGAAUGGAUCCACAUCUACGAAUUCGUACCAAAAAGAGGUUAUCCGCUCACCGAGAUCGGAAGAGCACACGU , what is it?
7.27

And then target 1 MT 5'PFS CCC 3'PFS AUG (mixed) RNA 1: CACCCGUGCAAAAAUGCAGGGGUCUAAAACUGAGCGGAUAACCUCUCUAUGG RNA 2: GGGAAUGGAUCCACAUCUACGAAUUCCCCCCAUAGAGAGGUUAUCCGCUCAAUGAGAUCGGAAGAGCACACGU , what is it?
7.51
